Here is a set of compounds with reported pIC50 for Methionine aminopeptidase 2 (Homo sapiens, UniProt P50579), compiled from the literature.
Sequence (P50579 whole entry, species assumed): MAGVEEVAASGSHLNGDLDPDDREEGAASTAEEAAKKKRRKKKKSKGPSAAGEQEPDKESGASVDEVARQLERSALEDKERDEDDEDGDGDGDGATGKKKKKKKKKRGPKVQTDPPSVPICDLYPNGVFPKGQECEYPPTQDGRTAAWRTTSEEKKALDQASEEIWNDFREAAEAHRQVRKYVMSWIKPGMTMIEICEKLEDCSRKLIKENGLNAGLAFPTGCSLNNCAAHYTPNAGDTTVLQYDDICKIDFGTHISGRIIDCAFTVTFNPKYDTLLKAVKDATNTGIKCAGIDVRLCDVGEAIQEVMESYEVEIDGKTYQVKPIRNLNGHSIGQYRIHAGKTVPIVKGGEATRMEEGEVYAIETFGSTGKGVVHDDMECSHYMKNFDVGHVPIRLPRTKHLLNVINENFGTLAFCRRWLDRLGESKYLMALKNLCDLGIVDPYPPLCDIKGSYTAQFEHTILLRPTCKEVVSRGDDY
pIC50: −log10 of the molar value.

INSERT INTO results (compound, result_type, reported_result) VALUES
  ('CNC(=O)/C=C/c1ccccc1OC[C@H]1CCCN1c1ncnc2[nH]cnc12', 'pIC50', '5.00 to 6.00'),
  ('O=C1N(CC2CCCCC2)CCC[C@]1(O)CNCc1cc(F)cc(Cl)c1', 'pIC50', '6.00 to 8.00'),
  ('O=C(NCc1cc(F)cc(Cl)c1)[C@]1(O)CCCN(Cc2ccccc2)C1=O', 'pIC50', '< 5.00'),
  ('O=C(NCc1cccc(Cl)c1F)[C@]1(O)CCN(c2cccc(Cl)c2)C1=O', 'pIC50', '5.00 to 6.00'),
  ('O=C(NCc1cc(F)cc(Cl)c1)C1(O)CCN(c2cnc3[nH]cc(C(F)(F)F)c3c2)C1=O (stereo not shown)', 'pIC50', '6.00 to 8.00'),
  ('c1ccc2c(OC[C@H]3CCCN3c3ccnc4ncnn34)ccnc2c1', 'pIC50', '6.00 to 8.00'),
  ('CNC(=O)c1cc(Oc2ccc(CNC(=O)Nc3cc(C(F)(F)F)ccc3OCC3CCCN3c3ncnc4[nH]cnc34)cc2)ccn1 (stereo not shown)', 'pIC50', '< 5.00'),
  ('O=C(NCc1ccc(F)c(Cl)c1)[C@@]1(O)CCN(c2ccccc2)C1=O', 'pIC50', '6.00 to 8.00');

Ask: GET /values?readout=pIC50&item= `Cn1c(C(=O)NCc2ccc(F)cc2)c(OC[C@H]2CCCN2c2ncnc3[nH]cnc23)c2cc(F)ccc21`
Result: < 5.00

Ask: Which pIC50 value belongs to Cc1cncc(N2CCC(O)(C(=O)NCc3cc(F)cc(Cl)c3)C2=O)c1 (stereo not shown) ?
Result: 6.00 to 8.00

Ask: # input compound: `NC(=O)C[C@@H](N)C(=O)Nc1ccc2cccc(OC[C@H]3CCCN3c3ncnc4[nH]cnc34)c2c1` ; wanted: its pIC50
Result: 5.00 to 6.00

Ask: pIC50 for `CCc1nnn(CCNC(=O)[C@@]2(O)CCN(c3ccccc3)C2=O)n1` ?
Result: 5.00 to 6.00

Ask: Fill blank: measured pIC50 of the compound CC(C)(C)OC(=O)N1CCC(O)(C(=O)OCc2ccccc2)C1=O (stereo not shown) is ____.
Result: < 5.00

Ask: Bench note: what pIC50 did `O=C(NCc1ccco1)[C@@]1(O)CCN(c2ccccc2)C1=O` show?
Result: 6.00 to 8.00
